Assignment: determine reported DC50 for the given molecules.
- system_name: HiBiT-BRM fusion protein in stable HeLa cell line (Homo sapiens)
- Construct: expressed in transfected cells
- Sequence (P51531 whole entry, the tested form may be a part): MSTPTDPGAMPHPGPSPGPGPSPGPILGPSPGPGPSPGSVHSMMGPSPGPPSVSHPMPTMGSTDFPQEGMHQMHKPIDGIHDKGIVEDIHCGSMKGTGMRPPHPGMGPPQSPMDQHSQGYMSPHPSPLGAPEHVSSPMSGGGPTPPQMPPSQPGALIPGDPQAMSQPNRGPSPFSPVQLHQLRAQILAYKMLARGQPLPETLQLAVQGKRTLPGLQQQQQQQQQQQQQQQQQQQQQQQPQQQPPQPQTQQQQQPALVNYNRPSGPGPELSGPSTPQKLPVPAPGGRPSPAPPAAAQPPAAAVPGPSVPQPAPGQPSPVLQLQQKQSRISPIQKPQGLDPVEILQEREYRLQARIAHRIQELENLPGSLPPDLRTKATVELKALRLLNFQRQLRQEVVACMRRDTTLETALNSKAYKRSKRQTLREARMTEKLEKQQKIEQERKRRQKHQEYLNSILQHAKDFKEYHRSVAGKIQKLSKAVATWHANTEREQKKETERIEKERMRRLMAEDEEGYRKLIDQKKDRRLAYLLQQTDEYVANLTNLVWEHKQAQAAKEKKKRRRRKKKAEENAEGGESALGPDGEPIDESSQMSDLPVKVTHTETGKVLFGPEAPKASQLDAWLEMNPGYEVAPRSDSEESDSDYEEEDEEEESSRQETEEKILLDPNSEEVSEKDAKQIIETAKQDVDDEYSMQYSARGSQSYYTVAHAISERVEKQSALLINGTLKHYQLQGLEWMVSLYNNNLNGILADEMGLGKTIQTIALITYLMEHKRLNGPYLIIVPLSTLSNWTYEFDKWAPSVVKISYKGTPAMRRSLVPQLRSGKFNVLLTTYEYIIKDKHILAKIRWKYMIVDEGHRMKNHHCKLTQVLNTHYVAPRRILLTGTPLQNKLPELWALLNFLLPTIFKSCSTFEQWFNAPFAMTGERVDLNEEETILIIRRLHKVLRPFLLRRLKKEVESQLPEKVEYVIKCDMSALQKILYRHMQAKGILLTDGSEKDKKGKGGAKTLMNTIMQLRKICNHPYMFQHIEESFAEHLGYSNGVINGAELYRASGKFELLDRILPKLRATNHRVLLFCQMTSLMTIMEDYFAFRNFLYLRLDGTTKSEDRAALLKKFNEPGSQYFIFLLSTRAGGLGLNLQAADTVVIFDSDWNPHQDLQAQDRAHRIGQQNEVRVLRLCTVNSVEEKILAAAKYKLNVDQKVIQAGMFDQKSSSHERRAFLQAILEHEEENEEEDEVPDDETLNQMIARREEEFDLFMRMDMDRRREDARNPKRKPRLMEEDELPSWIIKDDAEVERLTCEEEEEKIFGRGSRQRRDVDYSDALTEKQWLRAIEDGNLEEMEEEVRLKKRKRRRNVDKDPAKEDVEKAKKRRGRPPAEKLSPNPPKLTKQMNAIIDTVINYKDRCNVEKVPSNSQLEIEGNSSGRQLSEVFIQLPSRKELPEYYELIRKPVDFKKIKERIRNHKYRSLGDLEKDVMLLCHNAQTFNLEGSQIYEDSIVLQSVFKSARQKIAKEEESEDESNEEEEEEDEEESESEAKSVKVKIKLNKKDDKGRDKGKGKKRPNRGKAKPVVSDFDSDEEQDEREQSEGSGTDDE
- test_description: HiBiT-BRM cell-based degradation assay (Nano-Glo HiBiT Lytic Detection, 24 h)
- Parameters: scale not given here
- run_conditions: HeLa HiBiT-BRM cells, read-out: BRM HiBit Degradation IC50
- Protocol: Procedure: A stable HeLa cell line expressing HiBiT-BRM was generated. On day 0, 5000 cells were seeded in 40 μL of media into each well of 384-well cell culture plates. […] The plates were shaken for 10 minutes at room temperature and the bioluminescence read using an EnVision plate reader (PerkinElmer). The degradation % was calculated using the following formula: % degradation=100%−100%×(Lumsample−LumLC)/(LumHC−LumLC). […]

| structure_notation | system_name | DC50 |
| --- | --- | --- |
| Cc1ncsc1-c1ccc([C@H](C)NC(=O)[C@@H]2C[C@@H](O)CN2C(=O)[C@@H](c2cc(-c3cnc(N4CCC5(CC4)CC(c4ccc6nnc(-c7ccccc7O)cc6c4)C5)nc3)no2)C(C)C)cc1 | HiBiT-BRM fusion protein in stable HeLa cell line (Homo sapiens) | < 0.01 µM |
| Cc1ncsc1-c1ccc([C@H](C)NC(=O)[C@@H]2C[C@@H](O)CN2C(=O)[C@@H](c2cc(N3CCN(c4ccc5cc(-c6ccccc6O)nnc5c4)CC3)no2)C(C)C)cc1 | HiBiT-BRM fusion protein in stable HeLa cell line (Homo sapiens) | > 0.01 µM |

Field: next molecule
DC50 recorded for this molecule, Cc1ncsc1-c1ccc([C@H](C)NC(=O)[C@@H]2C[C@@H](O)CN2C(=O)[C@H](c2cc(-c3cnc(N4CC(c5cc6cc(-c7ccccc7O)nnc6cc5Cl)C4)nc3)no2)C(C)C)cc1 , is > 0.1 µM
